target: HELB D506G (Homo sapiens, UniProt Q8NG08 1-1087, D506G); test: fluorescence anisotropy; 10 mM Mg(OAc)2, no nucleotide; 25 mM HEPES pH 7.5, 10 mM KOAc, 10 mM Mg(OAc)2, 0.1 mM EDTA, 2 mM beta-mercaptoethanol, 0.1 mg/ml BSA, 1 nM DNA, 30 min, room temperature; conditions: protein: recombinant; tags: none (His-SUMO cleaved by Ulp1); label: 3'-6-carboxyfluorescein; single strand
Sequence (Q8NG08 whole entry D506G): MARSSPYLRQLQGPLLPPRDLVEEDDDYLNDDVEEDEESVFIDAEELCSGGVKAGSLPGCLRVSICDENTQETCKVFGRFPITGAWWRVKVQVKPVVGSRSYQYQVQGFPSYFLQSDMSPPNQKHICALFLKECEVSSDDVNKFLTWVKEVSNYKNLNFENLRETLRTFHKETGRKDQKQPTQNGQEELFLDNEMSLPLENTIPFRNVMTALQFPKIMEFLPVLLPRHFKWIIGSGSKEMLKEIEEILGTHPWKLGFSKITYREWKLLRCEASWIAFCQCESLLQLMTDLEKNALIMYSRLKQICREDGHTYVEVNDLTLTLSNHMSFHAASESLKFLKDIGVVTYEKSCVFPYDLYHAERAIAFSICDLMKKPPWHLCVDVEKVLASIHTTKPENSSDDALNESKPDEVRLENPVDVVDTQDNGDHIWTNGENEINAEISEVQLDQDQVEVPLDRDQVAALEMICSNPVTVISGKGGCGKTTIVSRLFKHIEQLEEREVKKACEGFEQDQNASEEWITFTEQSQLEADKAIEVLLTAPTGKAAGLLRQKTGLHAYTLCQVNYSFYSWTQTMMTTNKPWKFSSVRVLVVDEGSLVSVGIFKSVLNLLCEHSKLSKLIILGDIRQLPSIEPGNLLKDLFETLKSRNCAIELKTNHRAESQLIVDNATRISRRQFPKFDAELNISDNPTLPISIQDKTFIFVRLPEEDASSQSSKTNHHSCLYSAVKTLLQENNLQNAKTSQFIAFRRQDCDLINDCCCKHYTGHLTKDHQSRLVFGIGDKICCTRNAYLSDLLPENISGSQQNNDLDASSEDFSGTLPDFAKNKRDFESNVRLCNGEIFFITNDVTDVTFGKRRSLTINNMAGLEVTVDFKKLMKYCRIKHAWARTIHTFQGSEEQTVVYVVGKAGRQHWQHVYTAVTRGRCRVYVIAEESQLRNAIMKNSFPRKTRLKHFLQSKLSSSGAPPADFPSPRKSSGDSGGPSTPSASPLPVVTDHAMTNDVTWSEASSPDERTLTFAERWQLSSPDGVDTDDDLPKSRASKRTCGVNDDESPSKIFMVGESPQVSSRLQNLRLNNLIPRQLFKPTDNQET

BINDER	Kd (nM)
TTTTTTTTTTTTTTTT (ssDNA) [3'-FAM-T16]	2.2
